Reported MIC, Salmonella pullorum chuyu 114.

molecule	MIC / µg/mL
CC(O)CNC(=O)c1ccc(C=Cc2ccc([N+](=O)[O-])o2)cc1 (centres unmarked)	6.25
O=C(NCCO)c1ccc(C=Cc2ccc([N+](=O)[O-])o2)cc1	3.13
O=C(NCCCO)c1ccc(C=Cc2ccc([N+](=O)[O-])o2)cc1	6.25
O=C(NCCOCCO)c1ccc(C=Cc2ccc([N+](=O)[O-])o2)cc1	6.25
NC(=O)CNC(=O)c1ccc(C=Cc2ccc([N+](=O)[O-])o2)cc1	3.13
NC(=O)C(CO)NC(=O)c1ccc(C=Cc2ccc([N+](=O)[O-])o2)cc1 (centres unmarked)	6.25
O=C(NCCO)c1cccc(C=Cc2ccc([N+](=O)[O-])o2)c1	3.13
O=C(NCC(O)CO)c1ccc(C=Cc2ccc([N+](=O)[O-])o2)cc1 (centres unmarked)	6.25
